System Tested: T1, B lymphocyte stimulator protein (BLyS) (UniProt Q9Y275 134-285, biotinylated (b-BLyS) in phage screening and phage ELISA; unlabeled in fluorescence anisotropy and column tests)
T1 construct: also called b-BLyS; biotinylated recombinant BLyS
T1 sequence (Q9Y275 134-285 limits assumed): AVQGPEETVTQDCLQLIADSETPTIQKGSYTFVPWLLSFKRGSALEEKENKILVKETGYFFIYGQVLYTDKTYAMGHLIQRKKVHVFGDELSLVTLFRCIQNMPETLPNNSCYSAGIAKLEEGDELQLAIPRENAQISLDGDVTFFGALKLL
Assay Method Text: fluorescence anisotropy
No end group written: not given here.
Assay Readout: Kd (nM)
Give bare numbers, in nM.

Which Kd value is on record for Ac-WTDSLTGLWFPDGGPGPEGGGK (also: fluorescein-labeled, site not given here, synthetic) [DX221] ? 3000
